test system: MILI (PIWIL2) piRISC loaded with piRNA #1 (26 nt); assay: pre-steady-state target cleavage rate (min^-1); guide: piRNA #1 5'p-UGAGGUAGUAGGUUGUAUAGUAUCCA; MIWI and MILI are mouse PIWI proteins and EfPiwi is from a freshwater sponge; tags in brackets are library labels; higher = faster piRNA-guided slicing of the target; details: auxiliary factor: 500 nM mouse GTSF1;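 further: 1 nM active piRISC with 0.1 nM target library at 33 °C single turnover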
Parameter: pre-steady-state target cleavage rate. Scope: all listed entries.
Answer field: number only, no words.

{"SEQUENCE INPUT": "GGAGACCUAUGUAUACUACCUACAACCUCA", "SYSTEM": "MILI (PIWIL2) piRISC loaded with piRNA #1 (26 nt)", "pre-steady-state target cleavage rate": 0.0574}
{"SEQUENCE INPUT": "GGAGACCUAUCUAUACAUCCUUCUACCUCA", "SYSTEM": "MILI (PIWIL2) piRISC loaded with piRNA #1 (26 nt)", "pre-steady-state target cleavage rate": 0.0137}
{"SEQUENCE INPUT": "GGAGACCUAACUAUACAAGCUACUACCACA", "SYSTEM": "MILI (PIWIL2) piRISC loaded with piRNA #1 (26 nt)", "pre-steady-state target cleavage rate": 0.309}

Please examine the following record next.
Ask: Form field - read-out: pre-steady-state target cleavage rate; system: MILI (PIWIL2) piRISC loaded with piRNA #1 (26 nt); submitted item: "GGAGACCUAUCUAUACUUGCUACUACCUCA"
Result: 0.0151
